- Procedure details: Wavelength at maximum absorption and molar absorptivity of the cyanine compounds
- Type: physicochemical
- Test context: diacetone alcohol
Property: wavelength at maximum absorption (λmax)
# answer = value followed by unit

Reference set, count: 3
CC1(C)C(=CC=CC=CC2=[N+](CCO)c3cc4c(cc3C2(C)C)OCO4)N(CCO)c2cc3c(cc21)OCO3	695 nm
CCOCCN1C(=CC=CC=CC2=[N+](CCOCC)c3cc4c(cc3C2(C)C)CCC4)C(C)(C)c2cc3c(cc21)CCC3	672 nm
CCCCN1C(=CC=CC=CC2=[N+](CCCC)c3cc4c(cc3C2(C)C)CCC4)C(C)(C)c2cc3c(cc21)CCC3	670 nm

// lookup wavelength at maximum absorption (λmax) for CCCCN1C(=CC=CC=CC2=[N+](CCCC)c3cc4c(cc3C2(C)C)OC(C)C4)C(C)(C)c2cc3c(cc21)CC(C)O3 (centres unmarked)
695 nm

Now consider CCCCN1C(=CC=CC=CC2=[N+](CCCC)c3cc4c(cc3C2(C)C)CC(C)O4)C(C)(C)c2cc3c(cc21)OC(C)C3 (centres unmarked) .
688 nm

* * *

- Procedure details: Wavelength at maximum absorption and molar absorptivity of the cyanine compounds
- Type: physicochemical
Measured molar absorptivity (ε) by item
Respond with a number, then the unit of measure.

CCCCN1C(=CC=CC=CC=CC2=[N+](CCCC)c3cc4c(cc3C2(C)C)OC(C)C4)C(C)(C)c2cc3c(cc21)CC(C)O3 (centres unmarked)	193000 L/mol/cm
CC1(C)C(=CC=CC=CC=CC2=[N+](CCS(=O)(=O)O)c3cc4c(cc3C2(C)C)OCO4)N(CCS(=O)(=O)O)c2cc3c(cc21)OCO3	160000 L/mol/cm
CCCCN1C(=CC=CC=CC2=[N+](CCCC)c3cc4c(cc3C2(C)C)OC(C)C4)C(C)(C)c2cc3c(cc21)CC(C)O3 (centres unmarked)	194000 L/mol/cm
CC(=O)OCCN1C(=CC=CC=CC=CC2=[N+](CCOC(C)=O)c3cc4c(cc3C2(C)C)CCC4)C(C)(C)c2cc3c(cc21)CCC3	228000 L/mol/cm
CCOCCN1C(=CC=CC=CC2=[N+](CCOCC)c3cc4c(cc3C2(C)C)CCC4)C(C)(C)c2cc3c(cc21)CCC3	220000 L/mol/cm
CCCCN1C(=CC=CC=CC2=[N+](CCCC)c3cc4c(cc3C2(C)C)CCC4)C(C)(C)c2cc3c(cc21)CCC3	224000 L/mol/cm

May I ask what molar absorptivity (ε) has been recorded for CCCCN1C(=CC=CC=CC2=[N+](CCCC)c3cc4c(cc3C2(C)C)OCO4)C(C)(C)c2cc3c(cc21)OCO3 ?
176000 L/mol/cm

Record: CCCCN1C(=CC=CC=CC2=[N+](CCCC)c3cc4c(cc3C2(C)C)CC(C)O4)C(C)(C)c2cc3c(cc21)OC(C)C3 (centres unmarked)
190000 L/mol/cm
